tested on: A673 NR0B1-luciferase reporter, viability-normalised luminescence; test: suppressors of NR0B1-promoter luciferase reporter, dose response, EWS/Fli inhibitor project, luciferase luminescence, A673 cells, cherry-pick (AID 686920)
Entries and their AC35 values follow.

[
  {
    "molecule": "COc1ccc(CN(C)c2ncnc3sccc23)c(OC)c1OC",
    "AC35": "10.7 µM"
  },
  {
    "molecule": "CC(C)c1ccccc1NC(=O)COC(=O)CCN1C(=O)/C(=C\\C=C\\c2ccccc2)SC1=S",
    "AC35": "1.9 µM"
  },
  {
    "molecule": "CCCCNC(=O)C(c1ccc(OCC(=O)OC)c(C(=O)OC)c1)N(CCOC)C(=O)CCCCCN1C(=O)NC(c2ccc(-c3ccccc3)cc2)C(C(=O)OCc2ccccc2)=C1C (centres undefined)",
    "AC35": "40.4 µM"
  },
  {
    "molecule": "O=C1Nc2ccccc2C1=Nc1ccccc1-c1ccccc1",
    "AC35": "11.4 µM"
  },
  {
    "molecule": "COC1C(O)C(C)OC(OC2C(Oc3cccc4c(O)c5c(=O)oc6ccc(C)c7c(=O)oc(c34)c5c67)OC(C)C(O)C2O)C1O (centres undefined)",
    "AC35": "4.49 µM"
  },
  {
    "molecule": "C[C@@H]1O[C@@H](O[C@H]2C[C@@H](O)[C@]3(CO)[C@@H]4C(CC[C@]3(O)C2)[C@@]2(O)CC[C@H](C3COC(=O)C3)[C@@]2(C)C[C@H]4O)[C@H](O)[C@H](O)[C@H]1O (some centres undefined)",
    "AC35": "1.97 µM"
  },
  {
    "molecule": "COc1ccc(N=C(NN)c2ccc3ccccc3n2)cc1",
    "AC35": "21.8 µM"
  },
  {
    "molecule": "C=CC[n+]1c(-c2ccc(C)cc2)csc1Nc1ccc(NC(C)=O)cc1",
    "AC35": "15.6 µM"
  },
  {
    "molecule": "O=C(Nc1cccc(S(=O)(=O)N2CCCC2)c1)c1ccc(Cl)nc1",
    "AC35": "8.45 µM"
  },
  {
    "molecule": "O=C(COC(=O)c1ccc[nH]c1=O)Nc1ccc(N2CCCCC2)cc1",
    "AC35": "0.283 µM"
  },
  {
    "molecule": "COc1cccc(-c2cccc(-c3nc(C(=O)NCC(F)(F)F)cc4c3[C@H](CCO)N([S@@](=O)C(C)(C)C)C4)c2)c1",
    "AC35": "3.19 µM"
  },
  {
    "molecule": "COc1ccc(Cl)cc1S(=O)(=O)Nc1ccc2c(c1)n(C)c(=O)n2C",
    "AC35": "31.3 µM"
  },
  {
    "molecule": "O=C(NCc1ccc(F)cc1)N1[C@H]2CC[C@@H]1C=C(c1ccc(F)cc1OCc1ccccc1)C2",
    "AC35": "9.93 µM"
  },
  {
    "molecule": "CN(C)c1ccc(/C=N/Nc2nc3ccccc3o2)cc1",
    "AC35": "5.35 µM"
  },
  {
    "molecule": "CC1(C)N=C(N)N=C(N)N1c1ccc(OCCCOc2ccccc2)c(Cl)c1",
    "AC35": "2.61 µM"
  },
  {
    "molecule": "COCCCNc1ccn2nc(-c3ccccc3)cc2n1",
    "AC35": "10.1 µM"
  },
  {
    "molecule": "COC(=O)c1cccc(NC(=O)NC(=O)c2ccc(Cl)cc2)c1",
    "AC35": "0.225 µM"
  },
  {
    "molecule": "Nc1nc2cc3c(cc2cc1C(=O)NCCc1c[nH]c2ccccc12)OCO3",
    "AC35": "4.31 µM"
  },
  {
    "molecule": "Cc1nc2cc(-c3ccc(Cl)cc3)nn2c(C)c1CCC(=O)NC(C)c1ccc2c(c1)OCCO2 (centres undefined)",
    "AC35": "0.847 µM"
  }
]

###

Entries and their AC35 values follow.
tested on: A673 NR0B1-luciferase reporter, viability-normalised luminescence; test: suppressors of NR0B1-promoter luciferase reporter, dose response, EWS/Fli inhibitor project, luciferase luminescence, A673 cells, cherry-pick (AID 686920)
experimentalEndpoint: AC35

[
  {
    "compound": "c1ccc(Nc2nnc(-c3ccc4c(c3)OCO4)o2)cc1",
    "experimentalEndpoint": "AC35",
    "assayValue": "3.06 µM"
  },
  {
    "compound": "Cc1cccc(NC(=O)CN2CCN(C(=O)CNC(=O)c3ccc(-c4ccccc4)cc3)CC2)c1C",
    "experimentalEndpoint": "AC35",
    "assayValue": "8.14 µM"
  },
  {
    "compound": "O=c1[nH]c(=O)n([C@H]2C[C@H](O)[C@@H](CO)O2)cc1C(F)(F)F",
    "experimentalEndpoint": "AC35",
    "assayValue": "3.33 µM"
  },
  {
    "compound": "Nc1nc(N)c(-c2cccc(C(F)(F)F)c2)c(Cc2cccc(C(F)(F)F)c2)n1",
    "experimentalEndpoint": "AC35",
    "assayValue": "2.54 µM"
  },
  {
    "compound": "Cc1cc(C(=O)CN2C(=O)c3ccccc3S2(=O)=O)c(C)n1C(C)C",
    "experimentalEndpoint": "AC35",
    "assayValue": "3.04 µM"
  },
  {
    "compound": "CN(C)c1ccc2c(c1)[C@@H]1C[C@@H](CC(=O)NCc3ccc(Oc4ccccc4)cc3)O[C@H](CO)[C@@H]1O2",
    "experimentalEndpoint": "AC35",
    "assayValue": "5.8 µM"
  },
  {
    "compound": "O=C1C(=O)N(CCS(=O)(=O)c2ccccc2)c2ccccc21",
    "experimentalEndpoint": "AC35",
    "assayValue": "20.7 µM"
  },
  {
    "compound": "CCOc1ccc(C(c2c(NC(=O)c3ccccc3)sc(C)c2C)N2CCN(CCO)CC2)cc1 (configuration not stated)",
    "experimentalEndpoint": "AC35",
    "assayValue": "46.3 µM"
  },
  {
    "compound": "COc1ccc(NS(=O)(=O)c2cc(NC(=O)CNC(=O)c3cccc(OC)c3)ccc2C)cc1",
    "experimentalEndpoint": "AC35",
    "assayValue": "66.3 µM"
  },
  {
    "compound": "CC(C)=CCC/C(C)=C/CN1C(=O)N(c2ccc(F)cc2)[C@H]2C[C@@H](c3ccccc3)[C@@H](C)[C@@H](C(=O)N3CCOCC3)C[C@H]21",
    "experimentalEndpoint": "AC35",
    "assayValue": "7.8 µM"
  },
  {
    "compound": "Nc1sc(-c2ccccc2)cc1-c1n[nH]c(=S)n1C1CCCCC1",
    "experimentalEndpoint": "AC35",
    "assayValue": "3.67 µM"
  },
  {
    "compound": "CC(=O)Nc1cccc(-c2ccnc3c2CC(C)(C(=O)NCc2ccc(N(C)C)cc2)O3)c1 (configuration not stated)",
    "experimentalEndpoint": "AC35",
    "assayValue": "7.51 µM"
  }
]
